Below, each of the molecules is paired with its reported pIC50 value.
Biological target: human NaV 1.8 (Homo sapiens, UniProt Q9Y5Y9)
Sequence (Q9Y5Y9 whole entry, looked up): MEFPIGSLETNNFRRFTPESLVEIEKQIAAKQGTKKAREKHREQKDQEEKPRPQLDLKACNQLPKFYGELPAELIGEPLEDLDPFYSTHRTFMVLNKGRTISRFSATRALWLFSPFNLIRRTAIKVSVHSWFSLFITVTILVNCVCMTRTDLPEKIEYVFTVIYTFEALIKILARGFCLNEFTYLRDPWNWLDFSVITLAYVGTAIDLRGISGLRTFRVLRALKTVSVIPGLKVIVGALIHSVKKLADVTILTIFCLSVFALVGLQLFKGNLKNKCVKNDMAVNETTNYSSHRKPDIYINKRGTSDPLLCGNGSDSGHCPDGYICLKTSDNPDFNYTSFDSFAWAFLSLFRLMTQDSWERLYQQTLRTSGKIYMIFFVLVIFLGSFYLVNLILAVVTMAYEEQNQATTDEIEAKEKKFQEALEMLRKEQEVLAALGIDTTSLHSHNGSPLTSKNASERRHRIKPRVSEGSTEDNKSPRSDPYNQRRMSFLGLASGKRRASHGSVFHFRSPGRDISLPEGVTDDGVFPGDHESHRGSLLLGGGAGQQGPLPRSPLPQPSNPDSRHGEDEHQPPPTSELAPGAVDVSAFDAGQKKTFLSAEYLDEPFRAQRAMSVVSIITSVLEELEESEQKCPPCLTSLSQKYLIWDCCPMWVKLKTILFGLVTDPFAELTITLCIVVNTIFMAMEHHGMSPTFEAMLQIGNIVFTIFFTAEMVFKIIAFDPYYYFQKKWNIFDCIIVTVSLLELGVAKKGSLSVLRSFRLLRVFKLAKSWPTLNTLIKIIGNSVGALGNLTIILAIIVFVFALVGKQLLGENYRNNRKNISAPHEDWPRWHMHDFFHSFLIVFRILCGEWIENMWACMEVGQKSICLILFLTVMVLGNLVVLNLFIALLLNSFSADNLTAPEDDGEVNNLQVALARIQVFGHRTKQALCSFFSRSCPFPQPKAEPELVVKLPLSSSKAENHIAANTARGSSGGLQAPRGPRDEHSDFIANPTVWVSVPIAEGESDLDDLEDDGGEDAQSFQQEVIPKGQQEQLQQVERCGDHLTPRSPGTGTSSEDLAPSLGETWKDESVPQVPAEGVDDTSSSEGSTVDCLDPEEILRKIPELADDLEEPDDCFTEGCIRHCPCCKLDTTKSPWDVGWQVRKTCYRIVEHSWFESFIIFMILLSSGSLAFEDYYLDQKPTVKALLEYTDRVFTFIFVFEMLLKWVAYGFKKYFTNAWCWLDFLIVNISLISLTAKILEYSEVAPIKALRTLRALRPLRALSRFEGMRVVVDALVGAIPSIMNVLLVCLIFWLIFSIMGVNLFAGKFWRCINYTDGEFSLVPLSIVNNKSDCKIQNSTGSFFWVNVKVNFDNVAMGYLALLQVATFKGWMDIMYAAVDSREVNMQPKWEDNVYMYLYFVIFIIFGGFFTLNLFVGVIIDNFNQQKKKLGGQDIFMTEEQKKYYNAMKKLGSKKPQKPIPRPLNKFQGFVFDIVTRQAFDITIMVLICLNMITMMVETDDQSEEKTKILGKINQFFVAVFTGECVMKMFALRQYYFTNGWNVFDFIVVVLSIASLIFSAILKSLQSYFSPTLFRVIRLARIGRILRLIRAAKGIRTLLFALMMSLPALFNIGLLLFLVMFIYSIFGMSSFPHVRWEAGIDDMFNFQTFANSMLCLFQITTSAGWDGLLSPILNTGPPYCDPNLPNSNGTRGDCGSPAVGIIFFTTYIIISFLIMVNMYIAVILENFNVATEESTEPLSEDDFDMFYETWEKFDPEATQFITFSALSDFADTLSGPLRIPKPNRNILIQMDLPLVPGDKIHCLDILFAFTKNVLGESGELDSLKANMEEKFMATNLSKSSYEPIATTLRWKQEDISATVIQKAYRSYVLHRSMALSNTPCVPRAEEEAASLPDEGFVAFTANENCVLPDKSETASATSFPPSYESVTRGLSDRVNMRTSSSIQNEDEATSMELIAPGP
Test: E-VIPR assay for detecting and measuring NaV inhibition properties
Format: cell-based
Details: E-VIPR assay conducted in the presence of human serum; HEK cells expressing truncated human NaV 1.8; read-out: IC50
pIC50: −log10 of the molar value.

Molecule: CC(C)Oc1ccc(Oc2cccc(C(F)(F)F)c2C(=O)Nc2ccnc(C(N)=O)c2)c(F)c1
Inequality operator: <
pIC50: 5.52

Molecule: COc1cc(Oc2ccc(F)c(F)c2OC)c(C(=O)Nc2cnc(C(N)=O)nc2)c(F)c1C(F)(F)F
Inequality operator: =
pIC50: 7.59

Molecule: NC(=O)c1cc(NC(=O)c2c(Oc3ccc(OC(F)(F)F)c(F)c3C3CC3)ccc(C(F)(F)F)c2F)ccn1
Inequality operator: =
pIC50: 8.60

Molecule: Cc1cc(OC(F)(F)F)cc(Oc2ccc(OC(F)(F)F)cc2Cl)c1C(=O)Nc1ccc(C(N)=O)nc1
Inequality operator: =
pIC50: 5.73

Molecule: NC(=O)c1cc(NC(=O)c2c(Oc3ccc(F)c4c3OCC4)cccc2C(F)(F)F)ccn1
Inequality operator: <
pIC50: 5.52

Molecule: COc1c(C(F)(F)F)ccc(Oc2ccc(F)c(C)c2)c1C(=O)Nc1ccnc(C(N)=O)c1
Inequality operator: =
pIC50: 6.31

Molecule: COc1cc(OC(F)(F)F)ccc1Oc1cc(OC)c(Cl)c(F)c1C(=O)Nc1ccnc(C(N)=O)c1
Inequality operator: =
pIC50: 8.55

Molecule: CCOc1cc(OC(F)(F)F)ccc1Oc1cc(OC)c(C(F)(F)F)c(F)c1C(=O)Nc1ccnc(C(N)=O)c1
Inequality operator: =
pIC50: 8.51

Molecule: [2H]C([2H])([2H])Oc1cc(OC(F)(F)F)ccc1Oc1cc(C2=CCC(F)(F)CC2)cc(F)c1C(=O)Nc1ccnc(C(N)=O)c1
Inequality operator: =
pIC50: 7.59

Molecule: [2H]C([2H])([2H])Oc1cc(OC(F)(F)F)ccc1Oc1cc(C2CCCCC2)cc(F)c1C(=O)Nc1ccnc(C(N)=O)c1
Inequality operator: =
pIC50: 7.85

Molecule: COc1cc(OC(F)(F)F)ccc1Oc1cc(C2CCOC2)ccc1C(=O)Nc1ccnc(C(N)=O)c1 (stereo not shown)
Inequality operator: =
pIC50: 6.08

Molecule: Cc1cc(F)ccc1Oc1ccc(C(F)(F)F)c(C)c1C(=O)Nc1ccnc(C(N)=O)c1
Inequality operator: =
pIC50: 7.70

Molecule: COc1c(Oc2ccc(Cl)c(F)c2C(=O)Nc2ccnc(C(N)=O)c2)ccc(OC(F)(F)F)c1F
Inequality operator: =
pIC50: 8.64

The reported measurements were obtained from patent US12441703B2.
